Target: T1, human CD3εδ-Fc heterodimer (Hu CD3ε Fc / CD3δ Fc-HIS) (human, UniProt P04234 22-100)
T1 construct: range 22-100; Produced in HEK 293 cells with a heterologous signal peptide; heterodimer purified by Ni Sepharose and Mono Q; also called Hu CD3εδ Fc heterodimer; CD3εδ Fc-HIS heterodimer; not shown: Fc-HIS part of CD3δ Fc-HIS
T1 sequence (chain, as listed by the source mutant, form in doubt, chain 1 of 2): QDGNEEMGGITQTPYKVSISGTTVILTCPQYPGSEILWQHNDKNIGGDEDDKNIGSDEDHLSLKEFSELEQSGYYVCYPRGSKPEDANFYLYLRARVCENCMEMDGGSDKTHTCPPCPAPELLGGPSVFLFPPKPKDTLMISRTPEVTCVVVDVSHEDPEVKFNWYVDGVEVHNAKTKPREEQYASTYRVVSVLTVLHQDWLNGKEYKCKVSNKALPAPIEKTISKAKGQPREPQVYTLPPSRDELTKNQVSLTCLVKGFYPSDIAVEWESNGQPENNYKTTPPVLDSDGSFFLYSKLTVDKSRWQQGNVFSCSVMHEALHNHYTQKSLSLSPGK
T1 sequence (P04234 22-100, stated change not applied, form in doubt, chain 2 of 2): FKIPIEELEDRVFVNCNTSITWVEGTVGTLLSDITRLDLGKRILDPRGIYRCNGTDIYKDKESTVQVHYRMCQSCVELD
Experiment: BLI (Octet), CD3εδ-Fc on AHC sensor, CHO-derived Fab 100 nM in solution, pH 6.0
Consider the following binders; for each one, report its Kd.
One number for each entry, in nM.

binder | Kd (nM)
Fab of ADI-74966 (Antibody No. 4) (Fab, V domains shown, Fab made by papain digestion of the human IgG1 (yeast- or CHO-produced); also called Antibody No. 4 Fab; ADI-74966 Fab) VH: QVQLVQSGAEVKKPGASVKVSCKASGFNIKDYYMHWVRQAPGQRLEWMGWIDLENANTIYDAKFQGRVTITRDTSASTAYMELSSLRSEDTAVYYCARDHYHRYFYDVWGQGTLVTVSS VL: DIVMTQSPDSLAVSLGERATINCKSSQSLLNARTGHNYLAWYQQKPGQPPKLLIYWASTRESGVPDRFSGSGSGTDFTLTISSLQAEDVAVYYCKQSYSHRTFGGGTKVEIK | 36.7
Fab of ADI-74965 (Antibody No. 3) (Fab, V domains shown, Fab made by papain digestion of the human IgG1 (yeast- or CHO-produced); also called Antibody No. 3 Fab; ADI-74965 Fab) VH: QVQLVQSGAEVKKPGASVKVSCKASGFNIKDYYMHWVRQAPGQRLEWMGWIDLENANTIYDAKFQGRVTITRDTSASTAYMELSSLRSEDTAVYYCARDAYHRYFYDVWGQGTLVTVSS VL: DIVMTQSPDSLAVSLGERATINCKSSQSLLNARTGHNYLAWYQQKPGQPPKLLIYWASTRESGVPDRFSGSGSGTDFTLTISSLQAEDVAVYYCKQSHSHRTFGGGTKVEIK | 24.4

Record Fab of ADI-74967 (Antibody No. 5) (Fab, V domains shown, Fab made by papain digestion of the human IgG1 (yeast- or CHO-produced); also called Antibody No. 5 Fab; ADI-74967 Fab) VH: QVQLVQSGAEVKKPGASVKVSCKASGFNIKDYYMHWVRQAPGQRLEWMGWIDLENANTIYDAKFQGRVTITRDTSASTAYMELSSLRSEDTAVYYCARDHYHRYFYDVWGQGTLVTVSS VL: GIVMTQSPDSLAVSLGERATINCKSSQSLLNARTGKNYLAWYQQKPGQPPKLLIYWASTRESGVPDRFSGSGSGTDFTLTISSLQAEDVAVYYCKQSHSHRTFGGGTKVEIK , field Kd: 24.9
